Assign pKi to each entry below.
Remember the convention: pKi equals -log10 of concentration in molar.

Form field pKi for item CN(C)[C@H]1Cc2ccccc2[C@H](c2cccc(-c3ccccc3)c2)C1 on 5-hydroxytryptamine receptor 2B (Homo sapiens, UniProt P41595): 6.70

Summary: CN(C)[C@H]1Cc2ccccc2[C@H](C2CCCCCCC2)C1 , 5-hydroxytryptamine receptor 2B (Homo sapiens, UniProt P41595), pKi = 7.40

Entry CN(C)[C@H]1Cc2ccccc2[C@H](c2ccccc2Br)C1 , 5-hydroxytryptamine receptor 2B (Homo sapiens, UniProt P41595) data, pKi value: 5.39

Form: item CN(C)[C@H]1Cc2ccccc2[C@H](c2cccc(C(F)(F)F)c2)C1 ; test system 5-hydroxytryptamine receptor 2B (Homo sapiens, UniProt P41595); pKi: 6.70

Param item: CN(C)[C@@H]1Cc2ccccc2[C@@H](c2ccccc2Cl)C1 ; param system: 5-hydroxytryptamine receptor 2B (Homo sapiens, UniProt P41595); output pKi: 6.52

Item: CN(C)[C@@H]1Cc2ccccc2[C@@H](c2cccc(Br)c2)C1 | System: 5-hydroxytryptamine receptor 2B (Homo sapiens, UniProt P41595) | pKi: 8.10

Lab entry: 5-hydroxytryptamine receptor 2B (Homo sapiens, UniProt P41595) assay, compound CN(C)[C@H]1Cc2ccccc2[C@H](c2ccc(Cl)cc2)C1 , pKi = 7.10

Measured pKi (5-hydroxytryptamine receptor 2B (Homo sapiens, UniProt P41595)), entry Cc1ccccc1[C@H]1C[C@H](N(C)C)Cc2ccccc21 : 6.10

The compound CN(C)[C@@H]1Cc2ccccc2[C@@H](c2cccc([N+](=O)[O-])c2)C1 , tested on 5-hydroxytryptamine receptor 2B (Homo sapiens, UniProt P41595), showed pKi of 7.15

Reported 5-hydroxytryptamine receptor 2B (Homo sapiens, UniProt P41595) pKi for item CN(C)[C@H]1Cc2ccccc2[C@H](c2cccc(Cl)c2)C1 was 7.30

Measured on 5-hydroxytryptamine receptor 2B (Homo sapiens, UniProt P41595), CN(C)[C@@H]1Cc2ccccc2[C@@H](c2cccc(-c3ccccc3)c2)C1 has a documented pKi of 7.14

Simply: CN(C)[C@H]1Cc2ccccc2[C@H](c2ccccc2Cl)C1 , 5-hydroxytryptamine receptor 2B (Homo sapiens, UniProt P41595), pKi = 6.15

Log: 5-hydroxytryptamine receptor 2B (Homo sapiens, UniProt P41595), compound CN(C)[C@@H]1Cc2ccccc2[C@@H](c2cccc(Cl)c2)C1 , pKi = 7.52

Short answer on 5-hydroxytryptamine receptor 2B (Homo sapiens, UniProt P41595) for CN(C)[C@@H]1Cc2ccccc2[C@@H](c2ccc(Cl)cc2)C1 , pKi: 6.52

I looked up CN(C)[C@@H]1Cc2ccccc2[C@@H](C2CCCCC2)C1 and its pKi for 5-hydroxytryptamine receptor 2B (Homo sapiens, UniProt P41595) was 7.70

Log: 5-hydroxytryptamine receptor 2B (Homo sapiens, UniProt P41595), compound CN(C)[C@H]1Cc2ccccc2[C@H](c2ccc(Br)cc2)C1 , pKi = 7.52

Observed pKi, 5-hydroxytryptamine receptor 2B (Homo sapiens, UniProt P41595), CN(C)[C@H]1Cc2ccccc2[C@H](c2cccc(F)c2)C1 : 6.96

Tested on 5-hydroxytryptamine receptor 2B (Homo sapiens, UniProt P41595): CN(C)[C@@H]1Cc2ccccc2[C@@H](c2ccccc2)C1 . Observed pKi: 7.03

For the compound CN(C)[C@@H]1Cc2ccccc2[C@@H](c2ccc(F)cc2)C1 , the measured pKi on 5-hydroxytryptamine receptor 2B (Homo sapiens, UniProt P41595) was 6.40

Fill in: 5-hydroxytryptamine receptor 2B (Homo sapiens, UniProt P41595) pKi for CN(C)[C@H]1Cc2ccccc2[C@H](c2ccccc2)C1 = 6.62

Sample CN(C)[C@H]1Cc2ccccc2[C@H](c2cccc(Br)c2)C1 , system: 5-hydroxytryptamine receptor 2B (Homo sapiens, UniProt P41595). Its pKi is 7.40

Given the compound CN(C)[C@@H]1Cc2ccccc2[C@@H](c2ccc(Br)cc2)C1 and test system 5-hydroxytryptamine receptor 2B (Homo sapiens, UniProt P41595), the measured pKi is 6.68

5-hydroxytryptamine receptor 2B (Homo sapiens, UniProt P41595) data for CN(C)[C@@H]1Cc2ccccc2[C@@H](C2CCCCCCC2)C1 ; its pKi: 8.00

The reported measurements were obtained from ChEMBL document CHEMBL3400036.
